assay: Pharmacokinetic study after single i.p. administration, serum and brain concentrations by LC-MS/MS, non-compartmental analysis; assay type: in vivo, Albino Swiss mice; conditions: brain; mice, 5 mg/kg i.p.
experimental_readout: AUC0-inf

Worked cases, answers included:
* O=C1c2ccccc2C(=O)N1CC(O)CN1CCN(c2cccc(C(F)(F)F)c2)CC1 (stereo not shown) | 573.90 µg∙h/L(kg)
* O=C1c2ccccc2C(=O)N1CC(O)CN1CCN(C(c2ccccc2)c2ccccc2)CC1 (stereo not shown) | 168.99 µg∙h/L(kg)
* COc1ccccc1N1CCN(CC(O)CN2C(=O)c3ccccc3C2=O)CC1 (stereo not shown) | 237.16 µg∙h/L(kg)

We next turn to a different molecule, shown below.
Documented AUC0-inf of O=C1c2ccccc2C(=O)N1CC(O)CN1CCN(c2ccccc2)CC1 (stereo not shown) : 374.60 µg∙h/L(kg)

---

Tested on: rats
Experiment: Carrageenan-induced mechanical hyperalgesia (pain pressure threshold, Randall-Selitto)
Assay type: in vivo, Wistar rats
Details: 20 mg/kg; 1 h; vs control
Protocol: The acute and local inflammation and paw edema was induced by intraplantar (i.pl.) injection of 0.1 mL of 1% carrageenan solution in PBS into the rat’s right hind paw, according to the modified method of Winter and Lence, as described previously; (n = 84). The paw volume was measured using the dislocation of the water column of the plethysmometer (Type a, 7140; Plethysmometer, Ugo Basile, Gemonio, Italy) before (V0) and at 1, 2, and 3 h (V1, V2, V3) after i.pl. carrageenan injection. […]
experimental_readout: Increase in pain threshold (%)
One number for each entry, in %.

* O=C1c2ccccc2C(=O)N1CC(O)CN1CCN(c2ccccc2)CC1 (centres unmarked) | 20.2
* COc1ccccc1N1CCN(CC(O)CN2C(=O)c3ccccc3C2=O)CC1 (centres unmarked) | 10
* CC(C(=O)O)c1cccc(C(=O)c2ccccc2)c1 (centres unmarked) [Ketoprofen, ketoprofen, reference compound] | 19.8
* O=C1c2ccccc2C(=O)N1CC(O)CN1CCN(c2cccc(C(F)(F)F)c2)CC1 (centres unmarked) | 11.9

Documented Increase in pain threshold of O=C1c2ccccc2C(=O)N1CC(O)CN1CCN(C(c2ccccc2)c2ccccc2)CC1 (centres unmarked) : 14.4

---

test system: mice; test: Oxaliplatin-induced neuropathic pain, von Frey test (tactile allodynia); assay type: in vivo, Albino Swiss mice; conditions: late phase, 7 days after oxaliplatin; 10 mg/kg i.p.
For each of the molecules below, state its Pain threshold after compound administration (von Frey).
Give bare numbers, in g.

Worked cases, answers included:
- O=C1c2ccccc2C(=O)N1CC(O)CN1CCN(c2cccc(C(F)(F)F)c2)CC1 (stereo not shown): 3.99
- COc1ccccc1N1CCN(CC(O)CN2C(=O)c3ccccc3C2=O)CC1 (stereo not shown): 4.0
- O=C1c2ccccc2C(=O)N1CC(O)CN1CCN(C(c2ccccc2)c2ccccc2)CC1 (stereo not shown): 3.57

We next turn to a different molecule, shown below.
Documented Pain threshold after compound administration (von Frey) of O=C1c2ccccc2C(=O)N1CC(O)CN1CCN(c2ccccc2)CC1 (stereo not shown) : 3.9

---

test: Pharmacokinetic study after single i.p. administration, serum and brain concentrations by LC-MS/MS, non-compartmental analysis; assay type: in vivo, Albino Swiss mice; conditions: Albino Swiss, mouse, ip; serum; mice, 5 mg/kg i.p.; read-out: t1/2(λz) half-life in the elimination phase (converted)
experimental_readout: half-life (min)
Numbers only, in min.

- O=C1c2ccccc2C(=O)N1CC(O)CN1CCN(c2ccccc2)CC1 (stereo not shown): 57
- O=C1c2ccccc2C(=O)N1CC(O)CN1CCN(c2cccc(C(F)(F)F)c2)CC1 (stereo not shown): 75.6
- COc1ccccc1N1CCN(CC(O)CN2C(=O)c3ccccc3C2=O)CC1 (stereo not shown): 45

We next turn to a different compound, shown below.
Documented half-life of O=C1c2ccccc2C(=O)N1CC(O)CN1CCN(C(c2ccccc2)c2ccccc2)CC1 (stereo not shown) : 48
